# Test system: PPARg:RXRa DBDmut IVT, anti-RXR (DBD mutation: RXRa K156A/R161A, NR concentration 270 nM, RXRa partner concentration 90 nM)
# assay_name: PBM binding z-score (relative to random genomic background probes); higher = stronger binding; sequences stand for … in GC…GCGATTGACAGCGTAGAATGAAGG
Everything with PBM binding z-score lower than 3 is not met; everything else, including exactly 3, is met.

Sample answers from the record:
[
  {
    "sequence_input": "TCTTGTAGATCAAAGGTAAAGAAAGCCGAAGCCT",
    "assigned_category": "not met"
  },
  {
    "sequence_input": "CTCGAAAGGTCGGTTGAGGTGAGAATACGGATAA",
    "assigned_category": "not met"
  },
  {
    "sequence_input": "CAGACTAGGTCAAGAGGTCAAAGTCCGCTTCCCG",
    "assigned_category": "met"
  },
  {
    "sequence_input": "ATCGAAAGGTAGTGAGGTGAGTATACAGAAAGGC",
    "assigned_category": "not met"
  }
]

Next:
Task item: Is reported PBM binding z-score greater than or equal to 3 here: `CCTGCTAGGTCACGGTCAGCTAATCTACAGTATG`
Reply: met

###

# System: PPARg:RXRa 90nM:30nM, anti-RXR (NR concentration 90 nM, RXRa partner concentration 30 nM)
# assay_name: PBM binding z-score (relative to random genomic background probes); higher = stronger binding; sequences stand for … in GC…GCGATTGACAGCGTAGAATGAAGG
# PBM binding z-score values compiled below
Write no unit; give the number alone.

Consider the worked cases shown below.
[
  {
    "sequence_input": "AGAATGAGGTTACCAAAGATCAGCGAAACGCTTG",
    "reported_measurement": 1.64
  },
  {
    "sequence_input": "GTACCACGGTGAATAGGTCGTTGATGAGTAGGCG",
    "reported_measurement": 0.557
  },
  {
    "sequence_input": "GGAACGAGGGGAAAGTTGATAGCATCTGTCGACG",
    "reported_measurement": 6.53
  },
  {
    "sequence_input": "TAGCCTAGGTCATTCAGGGGCCAGTTTAGAAAGC",
    "reported_measurement": 1.59
  }
]

Task item: What does the record list as PBM binding z-score for `CGAACTCGGTCATCCAGGACAGTGAATACATTGA` ?
Reply: 0.455

Task item: Another: `ACTATTTGTTGACTTAGGGCAACCGATACGACGC`
Reply: 0.364

Task item: Another: `GCGACTGGTGCATCAGCAGGTTACCATAACTTAA`
Reply: -0.986

###

# System: LXRb:RXRa (NR concentration 270 nM, RXRa partner concentration 90 nM)
# assay_name: PBM binding z-score (relative to random genomic background probes); higher = stronger binding; sequences stand for … in GC…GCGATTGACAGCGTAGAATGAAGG
endpoint_name: PBM binding z-score
Write no unit; give the number alone.

[
  {
    "sequence_input": "AGAATGAGGTTACAAAAGATCAGGGAAACGCTTG",
    "test_target": "LXRb:RXRa (NR concentration 270 nM, RXRa partner concentration 90 nM)",
    "PBM binding z-score": 3.07
  }
]

Task item: What does the record list as PBM binding z-score for `TCTAGTTGGTCACGGAGGTCACCCACGACGGGTA` ?
Reply: 2.91

Task item: Another: `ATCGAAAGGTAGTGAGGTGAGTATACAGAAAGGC`
Reply: -0.247

Task item: Another: `ACTATTAGTTGACTTAGGGCATCCGATACGACGC`
Reply: -0.154
